Value source: ChEMBL document CHEMBL1128761

Tested on: Staphylococcus aureus
Method Notes: Inhibitory activity against methicillin-sensitive staphylococcus aureus(MSSA)
Type: functional
The entries below are paired with their reported MIC.

* C[C@@H](O)[C@H]1C(=O)N2C(C(=O)[O-])=C(Sc3ncc(-c4ccccc4)s3)[C@H](C)[C@H]12.[Na+] | 0.03 µg/mL
* CCOc1ccc2nc(SC3=C(C(=O)[O-])N4C(=O)[C@H]([C@@H](C)O)[C@H]4[C@H]3C)sc2c1.[Na+] | 0.1 µg/mL
* C[C@@H](O)[C@H]1C(=O)N2C(C(=O)[O-])=C(Sc3nc4cc(Cl)ccc4s3)[C@H](C)[C@H]12.[Na+] | 0.02 µg/mL

Now take the following molecule into account.
Form: molecule = "C[C@@H](O)[C@H]1C(=O)N2C(C(=O)[O-])=C(Sc3nc4ccc(C#N)cc4s3)[C@H](C)[C@H]12.[Na+]" ; MIC = 0.04 µg/mL

----------
Study Target: Dipeptidase 1 (Sus scrofa)
Sequence (whole entry): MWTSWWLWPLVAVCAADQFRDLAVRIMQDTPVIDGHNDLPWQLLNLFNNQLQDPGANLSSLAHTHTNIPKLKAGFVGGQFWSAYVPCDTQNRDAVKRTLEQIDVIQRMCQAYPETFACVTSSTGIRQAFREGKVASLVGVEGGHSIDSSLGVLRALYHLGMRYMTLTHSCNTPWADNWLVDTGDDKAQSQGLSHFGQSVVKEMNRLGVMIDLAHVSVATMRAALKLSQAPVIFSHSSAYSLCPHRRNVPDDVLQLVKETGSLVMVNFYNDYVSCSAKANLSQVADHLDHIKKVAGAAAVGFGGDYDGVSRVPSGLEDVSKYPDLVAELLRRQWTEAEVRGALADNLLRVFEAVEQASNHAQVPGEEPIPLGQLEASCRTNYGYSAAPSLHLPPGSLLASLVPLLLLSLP
Method Notes: Susceptibility to DHP-I (swine kidney enzyme)
Assay type: tissue-based
Quick rule for you: Susceptibility at 0.5 or higher means true, lower means false.

* C[C@@H](O)[C@H]1C(=O)N2C(C(=O)[O-])=C(Sc3nc4ccc([N+](=O)[O-])cc4s3)[C@H](C)[C@H]12.[Na+] | false
* C[C@@H](O)[C@H]1C(=O)N2C(C(=O)[O-])=C(Sc3nc4cc(Cl)ccc4s3)[C@H](C)[C@H]12.[Na+] | false
* C[C@@H](O)[C@H]1C(=O)N2C(C(=O)[O-])=C(Sc3nc4ccccc4s3)C[C@H]12.[Na+] | true
* C[C@@H](O)[C@H]1C(=O)N2C(C(=O)[O-])=C(Sc3nc4ccccc4s3)[C@H](C)[C@H]12.[Na+] | false
* C[C@@H](O)[C@H]1C(=O)N2C(C(=O)[O-])=C(Sc3cc4ccccc4s3)[C@H](C)[C@H]12.[Na+] | false
* C[C@@H](O)[C@H]1C(=O)N2C(C(=O)[O-])=C(Sc3nc(-c4ccccc4)cs3)[C@H](C)[C@H]12.[Na+] | false

State whether the measured Susceptibility reaches 0.5, counting equality as reaching it, for "C[C@@H](O)[C@H]1C(=O)N2C(C(=O)[O-])=C(Sc3nccs3)[C@H](C)[C@H]12.[Na+]"
false

State whether the measured Susceptibility reaches 0.5, counting equality as reaching it, for "CCOc1ccc2nc(SC3=C(C(=O)[O-])N4C(=O)[C@H]([C@@H](C)O)[C@H]4[C@H]3C)sc2c1.[Na+]"
false

State whether the measured Susceptibility reaches 0.5, counting equality as reaching it, for "COC(=O)c1csc2sc(SC3=C(C(=O)[O-])N4C(=O)[C@H]([C@@H](C)O)[C@H]4[C@H]3C)nc12.[Na+]"
false

State whether the measured Susceptibility reaches 0.5, counting equality as reaching it, for "C[C@@H](O)[C@H]1C(=O)N2C(C(=O)[O-])=C(Sc3nc(-c4ccccc4)cs3)C[C@H]12.[Na+]"
true

State whether the measured Susceptibility reaches 0.5, counting equality as reaching it, for "C[C@@H](O)[C@H]1C(=O)N2C(C(=O)[O-])=C(Sc3nc4cc(Cl)ccc4s3)C[C@H]12.[Na+]"
true

State whether the measured Susceptibility reaches 0.5, counting equality as reaching it, for "C[C@@H](O)[C@H]1C(=O)N2C(C(=O)[O-])=C(Sc3ncc4ccccc4n3)[C@H](C)[C@H]12.[Na+]"
false

State whether the measured Susceptibility reaches 0.5, counting equality as reaching it, for "C[C@@H](O)[C@H]1C(=O)N2C(C(=O)[O-])=C(Sc3nc4cc(CO)ccc4s3)[C@H](C)[C@H]12.[Na+]"
false

State whether the measured Susceptibility reaches 0.5, counting equality as reaching it, for "C[C@@H](O)[C@H]1C(=O)N2C(C(=O)[O-])=C(Sc3nc4ccc(C#N)cc4s3)[C@H](C)[C@H]12.[Na+]"
false

----------
Study Target: MecA (Staphylococcus aureus)
Sequence (Q7DHH4 whole entry): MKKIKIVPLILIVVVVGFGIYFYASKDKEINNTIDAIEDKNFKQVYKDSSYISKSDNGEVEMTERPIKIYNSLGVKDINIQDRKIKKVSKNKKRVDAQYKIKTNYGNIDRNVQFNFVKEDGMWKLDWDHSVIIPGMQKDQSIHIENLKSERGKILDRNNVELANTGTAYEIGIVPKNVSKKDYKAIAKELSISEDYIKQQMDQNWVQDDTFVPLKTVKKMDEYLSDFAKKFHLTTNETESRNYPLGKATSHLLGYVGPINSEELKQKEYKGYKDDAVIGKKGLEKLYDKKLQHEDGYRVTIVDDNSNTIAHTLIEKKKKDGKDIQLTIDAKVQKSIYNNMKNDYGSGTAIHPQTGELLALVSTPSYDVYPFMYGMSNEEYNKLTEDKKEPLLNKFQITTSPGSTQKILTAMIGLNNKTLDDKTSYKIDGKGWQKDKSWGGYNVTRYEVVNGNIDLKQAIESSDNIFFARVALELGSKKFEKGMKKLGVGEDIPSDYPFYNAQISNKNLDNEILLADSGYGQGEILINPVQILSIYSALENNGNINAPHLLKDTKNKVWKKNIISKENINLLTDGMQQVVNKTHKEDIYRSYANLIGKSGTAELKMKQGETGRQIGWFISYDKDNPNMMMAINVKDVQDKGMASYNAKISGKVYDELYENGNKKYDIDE
Method Notes: Binding affinity towards Penicillin-binding protein 2a from homogeneous MRSA COL strain using [3H]-radioligand
# 1 = IC50 below 4 µM (exclusive); 0 = IC50 at/above 4 µM

As a guide, the following entries are already answered.
- C[C@@H](O)[C@H]1C(=O)N2C(C(=O)[O-])=C(Sc3nc4ccccc4s3)C[C@H]12.[Na+]: 0
- C[C@@H](O)[C@H]1C(=O)N2C(C(=O)[O-])=C(Sc3nc(-c4ccccc4)cs3)[C@H](C)[C@H]12.[Na+]: 0
- C[C@@H](O)[C@H]1C(=O)N2C(C(=O)[O-])=C(Sc3nc4c(CO)csc4s3)[C@H](C)[C@H]12.[Na+]: 1

Does the reported IC50 of the following molecule sit strictly below 4 µM? "C[C@@H](O)[C@H]1C(=O)N2C(C(=O)[O-])=C(Sc3nc4c(C[n+]5ccn(C)c5)csc4s3)C[C@H]12"
1

Does the reported IC50 of the following molecule sit strictly below 4 µM? "C[C@@H](O)[C@H]1C(=O)N2C(C(=O)[O-])=C(Sc3nc4cc(C(F)(F)F)ccc4s3)[C@H](C)[C@H]12.[Na+]"
1

Does the reported IC50 of the following molecule sit strictly below 4 µM? "COC(=O)c1csc2sc(SC3=C(C(=O)[O-])N4C(=O)[C@H]([C@@H](C)O)[C@H]4[C@H]3C)nc12.[Na+]"
1

Does the reported IC50 of the following molecule sit strictly below 4 µM? "C[C@@H](O)[C@H]1C(=O)N2C(C(=O)[O-])=C(Sc3nc4cc(CO)ccc4s3)[C@H](C)[C@H]12.[Na+]"
1

Does the reported IC50 of the following molecule sit strictly below 4 µM? "C[C@@H](O)[C@H]1C(=O)N2C(C(=O)[O-])=C(Sc3ncc(-c4ccccc4)s3)[C@H](C)[C@H]12.[Na+]"
0

Does the reported IC50 of the following molecule sit strictly below 4 µM? "C[C@@H](O)[C@H]1C(=O)N2C(C(=O)[O-])=C(Sc3nc4ccc(C#N)cc4s3)[C@H](C)[C@H]12.[Na+]"
1

Does the reported IC50 of the following molecule sit strictly below 4 µM? "C[C@@H](O)[C@H]1C(=O)N2C(C(=O)[O-])=C(Sc3cc4ccccc4s3)[C@H](C)[C@H]12.[Na+]"
0

Does the reported IC50 of the following molecule sit strictly below 4 µM? "C[C@@H](O)[C@H]1C(=O)N2C(C(=O)[O-])=C(Sc3ccc4ccccc4n3)[C@H](C)[C@H]12.[Na+]"
0

Does the reported IC50 of the following molecule sit strictly below 4 µM? "C[C@@H](O)[C@H]1C(=O)N2C(C(=O)[O-])=C(Sc3nc4ccc(N)cc4s3)[C@H](C)[C@H]12.[Na+]"
0

Does the reported IC50 of the following molecule sit strictly below 4 µM? "C[C@@H](O)[C@H]1C(=O)N2C(C(=O)[O-])=C(Sc3ncc4ccccc4n3)[C@H](C)[C@H]12.[Na+]"
0

Does the reported IC50 of the following molecule sit strictly below 4 µM? "CCOc1ccc2nc(SC3=C(C(=O)[O-])N4C(=O)[C@H]([C@@H](C)O)[C@H]4[C@H]3C)sc2c1.[Na+]"
0

----------
Study Target: MecA (Staphylococcus aureus)
Method Notes: Binding affinity towards Penicillin-binding protein 2a from homogeneous MRSA COL strain using [3H]-radioligand
The entries below are paired with their reported pIC50.
By convention, pIC50 is the negative base-10 log of a molar concentration.

* C[C@@H](O)[C@H]1C(=O)N2C(C(=O)[O-])=C(Sc3nc4cc(C[n+]5ccn(C)c5)ccc4s3)C[C@H]12 | 6.06

Tested on MecA (Staphylococcus aureus), the item "C[C@@H](O)[C@H]1C(=O)N2C(C(=O)[O-])=C(Sc3nc4cc(Cl)ccc4s3)C[C@H]12.[Na+]" showed pIC50 equal to 5.42

Tested on MecA (Staphylococcus aureus), the item C[C@@H](O)[C@H]1C(=O)N2C(C(=O)O)=C(SCCN=CN)C[C@H]12 [IMIPENEM ANHYDROUS] showed pIC50 equal to 3.37

Tested on MecA (Staphylococcus aureus), the item "C[C@@H](O)[C@H]1C(=O)N2C(C(=O)[O-])=C(Sc3nc4ccccc4o3)[C@H](C)[C@H]12.[Na+]" showed pIC50 equal to 3.95

Tested on MecA (Staphylococcus aureus), the item "C[C@@H](O)[C@H]1C(=O)N2C(C(=O)[O-])=C(Sc3nccs3)[C@H](C)[C@H]12.[Na+]" showed pIC50 equal to 4.47

Tested on MecA (Staphylococcus aureus), the item "C[C@@H](O)[C@H]1C(=O)N2C(C(=O)[O-])=C(Sc3nc4ccccc4s3)[C@H](C)[C@H]12.[Na+]" showed pIC50 equal to 5.30
